- target of assay: Recombinant human integrin αVβ6 (Homo sapiens, UniProt P06756+P18564)
- Sequence (P06756 31-992 limits assumed): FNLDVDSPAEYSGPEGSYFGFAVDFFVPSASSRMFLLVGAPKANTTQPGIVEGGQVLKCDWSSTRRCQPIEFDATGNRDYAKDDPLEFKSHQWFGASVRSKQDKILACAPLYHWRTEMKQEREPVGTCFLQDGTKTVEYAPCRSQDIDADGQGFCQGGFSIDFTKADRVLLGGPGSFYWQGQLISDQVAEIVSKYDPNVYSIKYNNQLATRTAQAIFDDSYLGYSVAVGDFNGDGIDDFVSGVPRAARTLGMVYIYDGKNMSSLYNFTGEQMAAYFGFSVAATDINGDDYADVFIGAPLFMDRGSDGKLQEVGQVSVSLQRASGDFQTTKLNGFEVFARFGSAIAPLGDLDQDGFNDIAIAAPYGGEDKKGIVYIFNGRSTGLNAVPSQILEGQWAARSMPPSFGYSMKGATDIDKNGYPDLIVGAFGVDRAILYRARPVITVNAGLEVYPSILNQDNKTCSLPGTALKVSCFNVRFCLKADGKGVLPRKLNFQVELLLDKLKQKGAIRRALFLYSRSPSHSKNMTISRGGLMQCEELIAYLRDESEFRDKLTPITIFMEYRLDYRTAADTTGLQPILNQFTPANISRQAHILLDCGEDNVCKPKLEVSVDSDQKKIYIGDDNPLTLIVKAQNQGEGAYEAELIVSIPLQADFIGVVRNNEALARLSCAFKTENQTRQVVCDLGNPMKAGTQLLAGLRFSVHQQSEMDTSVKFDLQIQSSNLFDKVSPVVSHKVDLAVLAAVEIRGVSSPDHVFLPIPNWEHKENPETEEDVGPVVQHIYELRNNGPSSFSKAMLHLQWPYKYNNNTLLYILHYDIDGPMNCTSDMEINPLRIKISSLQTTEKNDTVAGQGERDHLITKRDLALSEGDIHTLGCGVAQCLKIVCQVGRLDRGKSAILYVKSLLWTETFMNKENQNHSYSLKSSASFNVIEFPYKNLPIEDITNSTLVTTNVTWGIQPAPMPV
- Sequence (P18564 22-707 limits assumed): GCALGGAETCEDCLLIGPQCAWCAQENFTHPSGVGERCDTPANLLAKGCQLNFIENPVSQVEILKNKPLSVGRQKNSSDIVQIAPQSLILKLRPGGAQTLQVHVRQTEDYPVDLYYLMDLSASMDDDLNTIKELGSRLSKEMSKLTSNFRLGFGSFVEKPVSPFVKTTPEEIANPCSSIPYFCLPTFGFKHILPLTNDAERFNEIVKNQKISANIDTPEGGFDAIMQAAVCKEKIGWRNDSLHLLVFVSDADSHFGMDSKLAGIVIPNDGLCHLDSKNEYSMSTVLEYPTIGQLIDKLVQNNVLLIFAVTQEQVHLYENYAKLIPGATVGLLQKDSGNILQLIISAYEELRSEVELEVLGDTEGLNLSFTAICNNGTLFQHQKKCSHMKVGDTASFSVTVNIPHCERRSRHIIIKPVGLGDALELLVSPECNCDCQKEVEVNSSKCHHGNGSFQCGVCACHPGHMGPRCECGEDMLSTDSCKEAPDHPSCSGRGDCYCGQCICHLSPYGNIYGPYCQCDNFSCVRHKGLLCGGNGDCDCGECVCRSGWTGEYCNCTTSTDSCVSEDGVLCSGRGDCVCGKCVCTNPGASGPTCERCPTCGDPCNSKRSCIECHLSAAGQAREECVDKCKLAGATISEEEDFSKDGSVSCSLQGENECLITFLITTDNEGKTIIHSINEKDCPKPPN
- protocol details: Solid Phase Receptor Assay (SPRA) for αVβ6 function
- experimental parameters: plate-bound human LAP
Checkbox rule: IC50 lower than 100 nM = TRUE; IC50 not lower than 100 nM = FALSE.

> print(dat)
                                    compound                           target.of.assay  class.name
 1  COc1cc(C(CC(=O)O)Cc2cc(OCCc3ccc4c(n3)NCCC4)n(C)n2)cc(C23CC4CC(CC(C4)C2)C3)c1OCc1ccccc1 (centres unmarked)  Recombinant human integrin αVβ6 (Homo sapiens, UniProt P06756+P18564)       FALSE
 2  Cn1nc(CC(CC(=O)O)c2cc(C(C)(C)C)cc(C(C)(C)C#N)c2)cc1OCCc1ccc2c(n1)NCCC2 (centres unmarked)  Recombinant human integrin αVβ6 (Homo sapiens, UniProt P06756+P18564)       FALSE
 3  COCC1(c2cc(C(CC(=O)O)Cc3cc(OCCc4ccc5c(n4)NCCC5)n(C)n3)cc(C(C)(C)C)c2)CCOCC1 (centres unmarked)  Recombinant human integrin αVβ6 (Homo sapiens, UniProt P06756+P18564)       FALSE
 4  COc1cc(C(CC(=O)O)Cc2cc(OCCc3ccc4c(n3)NCCC4)n(C)n2)cc(C23CC4CC(CC(C4)C2)C3)c1OC (centres unmarked)  Recombinant human integrin αVβ6 (Homo sapiens, UniProt P06756+P18564)       FALSE
 5  CC(C)c1cc(C#N)cc(C(CC(=O)O)Cc2cc(OCCc3ccc4c(n3)NCCC4)n(C)n2)c1 (centres unmarked)  Recombinant human integrin αVβ6 (Homo sapiens, UniProt P06756+P18564)        TRUE
 6  O=C(O)CC(Cc1cc(OCCc2ccc3c(n2)NCCC3)[nH]n1)c1cccc(F)c1 (centres unmarked) [CC2, reference compound]  Recombinant human integrin αVβ6 (Homo sapiens, UniProt P06756+P18564)        TRUE
 7  COc1ccc(C2COC2)cc1C(CC(=O)O)Cc1cc(OCCc2ccc3c(n2)NCCC3)n(C)n1 (centres unmarked)  Recombinant human integrin αVβ6 (Homo sapiens, UniProt P06756+P18564)       FALSE
 8  CC(C)c1cc(C(C)C)cc(C(CC(=O)O)Cc2cc(OCCc3ccc4c(n3)NCCC4)n(C)n2)c1 (centres unmarked)  Recombinant human integrin αVβ6 (Homo sapiens, UniProt P06756+P18564)        TRUE
 9  COc1ccc(C2=CCOCC2)cc1C(CC(=O)O)Cc1csc(CCCc2ccc3c(n2)NCCC3)n1 (centres unmarked)  Recombinant human integrin αVβ6 (Homo sapiens, UniProt P06756+P18564)        TRUE
10  CC(C)(C)c1cc(C(CC(=O)O)Cc2csc(CCCc3ccc4c(n3)NCCC4)n2)cc(C2(C(F)F)CC2)c1 (centres unmarked)  Recombinant human integrin αVβ6 (Homo sapiens, UniProt P06756+P18564)       FALSE
11  Cn1nc(CC(CC(=O)O)c2cc(C(C)(C)C)ccc2Br)cc1OCCc1ccc2c(n1)NCCC2 (centres unmarked)  Recombinant human integrin αVβ6 (Homo sapiens, UniProt P06756+P18564)       FALSE
12  COc1ccc(C(C)(C)C)cc1C(CC(=O)O)Cc1csc(CCCc2ccc3c(n2)NCCC3)n1 (centres unmarked)  Recombinant human integrin αVβ6 (Homo sapiens, UniProt P06756+P18564)       FALSE
13  COc1c(C(C)C)cc(C(CC(=O)O)Cc2csc(CCCc3ccc4c(n3)NCCC4)n2)cc1C(C)C (centres unmarked)  Recombinant human integrin αVβ6 (Homo sapiens, UniProt P06756+P18564)       FALSE
14  Cn1nc(CC(CC(=O)O)c2cc(C(C)(C)C)ccc2C#N)cc1OCCc1ccc2c(n1)NCCC2 (centres unmarked)  Recombinant human integrin αVβ6 (Homo sapiens, UniProt P06756+P18564)        TRUE
15  COc1c(C(C)(C)C)cc(C(CC(=O)O)Cc2cc(OCCc3ccc4c(n3)NCCC4)n(C)n2)cc1C(C)(C)C (centres unmarked)  Recombinant human integrin αVβ6 (Homo sapiens, UniProt P06756+P18564)       FALSE
16  Cn1nc(CC(CC(=O)O)c2cc(Cl)cc(C(C)(C)C#N)c2)cc1OCCc1ccc2c(n1)NCCC2 (centres unmarked)  Recombinant human integrin αVβ6 (Homo sapiens, UniProt P06756+P18564)        TRUE
17  CC(C)(C)c1cc(C(CC(=O)O)Cc2csc(CCCc3ccc4c(n3)NCCC4)n2)cc(C(C)(C)C)c1 (centres unmarked)  Recombinant human integrin αVβ6 (Homo sapiens, UniProt P06756+P18564)       FALSE
